B1: PHTF1 (parent)
chain: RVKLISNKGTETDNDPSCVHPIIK

variants of: B1; experiment: protein stability index of a GFP-peptide fusion (GPS, HEK-293T) (PSI 1-6); higher = more stable; settings: c terminus: a fixed tail appended;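 further: lentivirally expressed fusions sorted by FACS into six bins by GFP to DsRed ratio, PSI derived from sequencing read proportions per bin multiplied by bin number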
I'd appreciate it if you could supply protein stability index values for the items below.

Below, each entry is followed by its recorded protein stability index result.
1. RVKLISNKGTETDNDPWCVHPIIK [S17W]: 2.96
2. RVKLISNKGTESDNDPSCVHPIIK [T12S]: 4.09
3. RVKLISNKGTETDNDPSCVHPIIT [K24T]: 3.68
4. RVKMISNKGTETDNDPSCVHPIIK [L4M]: 4.13
5. RVKLISGKGTETDNDPSCVHPIIK [N7G]: 3.96
6. RVKLISNKGTETDNDPSIVHPIIK [C18I]: 4.23

// each listed variant needs a value for protein stability index
1. RVKLISNKGTEADNDPSCVHPIIK [T12A]
2. RVKLISNKGTETDNDPSCVHPIPK [I23P]
3. RVKLISNKGTETDNDPSCVHPISK [I23S]
4. RRKLISNKGTETDNDPSCVHPIIK [V2R]
5. RVKLISNKGTETDNDPSCVHLIIK [P21L]
6. RVKLISNKGTETDNDLSCVHPIIK [P16L]

[4.11, 4.69, 4.37, 4.45, 2.3, 3.38]

These entries and their values trace back to the supplement of paper PMC10567573.
